Each recorded value in this set is attributed to patent US10532988B2.

# method: Hygroscopicity - dynamic vapor sorption (DVS)
# Type: physicochemical
# experimentalContext: DVS sorption phase from 0% RH
Where a name gives a salt, the structure may show the parent alone.
assayMetric: RH up to which the sample did not adsorb much moisture (rapid sorption above) (% RH)

Known results for molecules:
[[record]]
molecule = "CCC(C)C(N)C(=O)NCCN1CCOCC1.O=C(O)C(=O)O (stereo not drawn) [Monooxalate]"
readingunit = "% RH"
measured = 50

[[record]]
molecule = "CCC(C)C(N)C(=O)NCCN1CCOCC1.Cc1ccc(S(=O)(=O)O)cc1.Cc1ccc(S(=O)(=O)O)cc1 (stereo not drawn) [Ditosylate]"
readingunit = "% RH"
measured = 80

[[record]]
molecule = "CCC(C)C(N)C(=O)NCCN1CCOCC1.CS(=O)(=O)O.CS(=O)(=O)O (stereo not drawn) [Dimesylate]"
readingunit = "% RH"
measured = 55


1 = CC[C@H](C)[C@H](N)C(=O)NCCN1CCOCC1 (stereo in doubt) [Free base]
2 = CCC(C)C(N)C(=O)NCCN1CCOCC1 (stereo not drawn) [di-HCl salt]
In: Endpoint returns the identifier whose RH up to which the sample did not adsorb much moisture (rapid sorption above) is numerically larger, either 1 or 2 . Which one? Tell me its label.
Out: 1
(1: 45 % RH, 2: 20 % RH)
